So I've got a bunch of compounds here, and I need their TGI values.
Tested on: IGROV1 ovarian
ASSAY COMMENT: NCI tumour cell line growth inhibition, 48 h
The reply should contain only the number, in µM.

# input Give the measured TGI of CCOC(=O)c1c2c(n3ccc(NC(=O)CCN4CCCCC4)cc13)C(=O)c1ncccc1C2=O .
# output 2.54

# input And then COc1cc2c(cc1O)c(=O)n(CCN(C)C)c1c3cc4c(cc3ncc21)OCO4 , what is it?
# output 8.2

# input CCCS(=O)(=O)Nc1cccc(Nc2ncnc3cc(NC(=O)CCl)ccc23)c1Cl ?
# output 7.06

----------
System: SK-MEL-28 melanoma
ASSAY COMMENT: NCI tumour cell line growth inhibition, 48 h; in the data active = GI50 below about 0.43 µM; inactive = the rest
Permitted responses: y = active, n = inactive

# input Which result was noted for this compound in the test: C/C(CC(C)(C)N1CC1)=N\NC(=O)Nc1cccc2ccccc12
# output n

# input Here is the next compound: O=[N+]([O-])c1ccc(N=Nc2c(Cl)cc(O)cc2Cl)cc1
# output n

# input // same read-out, input: Cc1ccc(-c2nc(/C=N/Nc3cc(C)nc4ccc(Br)cc34)c(C)o2)cc1
# output n

# input # iterate: COc1cc2c(/C=C3/C(=O)Nc4ccc(O)cc43)c(Cl)n(Cc3cc(OC)c(OC)c(OC)c3)c2cc1C
# output n

# input Item: Cc1nc2ccccc2c(/C=C/c2ccccc2)c1C(=O)/C=C/c1ccc(C(F)(F)F)cc1
# output n

# input Repeat with CC(=O)Nc1ccc(OC(C)=O)cc1
# output y

# input Another: CC[O-].CC[O-].O=C([CH-]C(=O)c1ccccc1)CCCCCCC(=O)[CH-]C(=O)c1ccccc1.[Ti+4]
# output n

# input Same read-out for Fc1ccc(-c2ncn(CCCN3CCOCC3)c2-c2ccncc2)cc1 ?
# output n

# input One more compound: COc1ccc(C2CC(c3ccc(OC)cc3O)=NN2c2ccc(S(N)(=O)=O)cc2)cc1 (configuration not stated)
# output n

# input Item: CCCCc1n(Cc2ccc3ccccc3n2)cc[n+]1Cc1ccc2ccccc2n1
# output n

# input What do we get for O=C(Nc1n[nH]c2nc(-c3ccc(O)cc3)c(Br)cc12)C1CC1 ?
# output n

# input What do you have for O=C(c1ccc2ccccc2c1)c1c(C(F)(F)F)n([O-])c2cc(C(F)(F)F)ccc2[n+]1=O ?
# output n

# input What about C1C[OH+]CCNCC[OH+]CC[OH+]CCN1.N.[Cl-].[Pt+4] ?
# output n

# input Same again, this time with Cc1ccc2[nH]c(C(=O)NN3C(=O)C(C)SC34CCC(C)CC4)c(-c3ccccc3)c2c1 (configuration not stated)
# output n

# input Input COc1cc2c(c(OC)c1OC)-c1c(c3ccc([N+](=O)[O-])cc3c(=O)n1CCCBr)C2=O
# output n

# input Moving on to the next compound: S=C1SCN(Cc2ccccc2)CN1Cc1ccccc1
# output n

# input Please do the same for COC(=O)C1=C(C(=O)ON)[C@@H]2C=C[C@@]1([C@@H](Cc1ccccc1)Nc1ccccc1)O2 as well.
# output n

----------
Test system: RPMI-8226 leukemia
ASSAY COMMENT: NCI tumour cell line growth inhibition, 48 h
MEASUREMENT LABEL: TGI

# input Field request: TGI | item: N#Cc1sc2c(c1OC(=O)c1ccc(Cl)cc1Cl)c(=O)n(-c1ccccc1)c(=S)n2-c1ccccc1
# output 60 µM

# input Request: Cc1ccc(-c2nc(/C=N/Nc3cc(C)nc4ccc(Br)cc34)c(C)o2)cc1
# output 4.71 µM

# input Also CCOc1cc(C2SCC(=O)N2c2ccc3c(c2)Oc2c(Cl)c4c(c(Cl)c2=N3)Oc2cc(N3C(=O)CSC3c3ccc(O)c(OCC)c3)ccc2N=4)ccc1O (stereo not drawn) , if possible.
# output > 100 µM

# input Can you handle C/C(=C\C(C[C@](C)(O)C(O)CCC#C[Si](C)(C)C)S(=O)(=O)c1ccccc1)CC/C=C/CO[Si](C)(C)C(C)(C)C (stereo partly drawn) next?
# output 31.6 µM

# input Item: c1cc(C2=NCCO2)c2ccsc2c1
# output > 100 µM

# input Item: CC(=O)C1C(=O)C(C(C)=O)C2C3C=CC(C3)C12 (stereo not drawn)
# output > 100 µM

# input Param item: O=C1NC2(CCCC2)C2CCCCC12O (stereo not drawn)
# output > 100 µM

# input Check CSc1nc(-c2ccccc2)nc(C(C#N)C#N)n1 too.
# output > 100 µM

# input Entry to check: O=C1c2cc3c(cc2-c2c1c1ccc(F)cc1c(=O)n2C[C@H](O)[C@H](O)[C@H](O)CO)OCO3
# output 5.6 µM

# input Moving on to COc1ccc(-c2cc(=O)c3cc(Cl)ccc3[nH]2)cc1
# output > 100 µM

# input Subsequent entry: O=C(C=Nc1ccccc1S)c1ccco1
# output 46.1 µM

# input Lookup O=C1NC(=O)C(C(c2ccc([N+](=O)[O-])cc2)C2C(=O)NC(=O)NC2=O)C(=O)N1
# output > 100 µM

# input Check S=C1SCN(Cc2ccccc2)CN1Cc1ccccc1 too.
# output 0.415 µM

# input Try this compound next: C=CCCCN1CCCCC1=S
# output > 100 µM

# input Query COc1cc2c(cc1O)c(=O)n(CCN(C)C)c1c3cc4c(cc3ncc21)OCO4 next
# output 0.434 µM

# input Item: Cc1ccc2[nH]c(O)c(N=Nc3ccccc3[N+](=O)[O-])c2c1
# output > 100 µM

# input Now try COc1nc2ccc(CNc3ccc(C(=O)NC(CCC(=O)O)C(=O)O)cc3)cc2nc1OC (stereo not drawn) .
# output > 100 µM

# input Do the same for N#CC1(N2CCCC2)CCC2(CC1)OCCO2 please
# output > 100 µM

# input Field entry: O=C1CCCCCCCCCCC1CN1CCOCC1 (stereo not drawn)
# output > 100 µM

# input Do the same for CCn1c(SCC(=O)Nc2cc(C(F)(F)F)ccc2Cl)nc2ccccc2c1=O please
# output > 100 µM

# input Then CCOC(=O)[C@@H](NC(=O)OC(C)(C)C)[C@@H](O)C(=O)OCC ?
# output > 100 µM

# input O=C1/C(=C/c2ccccc2)CCc2ccc([N+](=O)[O-])cc21 , same question.
# output 7.13 µM

# input Also check O=C(O)/C=C/c1ccc(OS(=O)(=O)O)cc1
# output > 100 µM

# input Then what about the compound CCc1cccc(C(C)CC)c1NC(=O)C(=O)Cc1nc2ccccc2o1 (stereo not drawn) ?
# output > 50 µM

# input Lookup COc1ccccc1NC(=O)CC(=O)n1nc(C)c(N=Nc2ccccc2Cl)c1C
# output > 100 µM

# input Next compound up: Cc1ccc2[nH]c(C(=O)NN3C(=O)C(C)SC34CCC(C)CC4)c(-c3ccccc3)c2c1 (stereo not drawn)
# output 52.6 µM

# input // next record CCN(CC)CCn1c(=O)c2cc(OC)c(OC)cc2c2ccc3cc4c(cc3c21)OCO4
# output 4.56 µM

# input What do you get for C1=CC=C2NCCc3cccc(c3)CCNC3=CC=CC=CC3=NCCCCCCN=C2C=C1 ?
# output 31.1 µM

# input And then CC1(C)CCc2c(c(N=Nc3ccccc3F)c3ccccc3c2O)O1 , what is it?
# output > 100 µM

# input Next: CC1SC2=NC3=C(c4ccccc4C3=O)C(c3ccccc3Cl)N2C1=O (stereo not drawn)
# output > 100 µM

# input Next up: Cc1cccc(N=Cc2ccc(N(CCC#N)S(=O)(=O)c3ccccc3)cc2C)c1
# output > 100 µM

# input Subsequent entry: CNC(=O)N1CN(c2ccccc2)C2(CCN(Cc3ccccc3)CC2)C1=O
# output > 100 µM

# input # repeat for C=CCOc1ccc(N)c([N+](=O)[O-])c1
# output > 100 µM
